Value source: ChEMBL document CHEMBL5724914

procedure-summary: The drug is tested on Z-018 corresponding to pig gut metagenome with ENA study accession number: PRJEB37062 and ENA sample accession number: ERS12561817 for biotransformation under anaerobic condition. The drug concentrations were measured over 9 timepoints collected between 0 and 24 hours of incubation by liquid-chromatography-coupled mass spectrometry (LC–MS); further: call rule not given here
study-conditions: 2 µM

>  <compound>
CC(CN1c2ccccc2Sc2ccccc21)N(C)C (configuration not stated) [PROMETHAZINE]

>  <Bacterial Biotransformation>
Compound metabolized

$$$$
>  <compound>
C[C@@H]1CC[C@H]2[C@@H](C)C(=O)O[C@@H]3O[C@@]4(C)CC[C@@H]1[C@]32OO4 [ARTEMISININ]

>  <Bacterial Biotransformation>
Compound metabolized

$$$$
>  <compound>
CN1CCOC(c2ccccc2)c2ccccc2C1 (configuration not stated) [NEFOPAM]

>  <Bacterial Biotransformation>
Compound NOT metabolized

$$$$
>  <compound>
CN1C(C(=O)Nc2ccccn2)=C(O)c2sccc2S1(=O)=O [TENOXICAM]

>  <Bacterial Biotransformation>
Compound NOT metabolized

$$$$
>  <compound>
O=C(Nc1ccccc1)OCC(CN1CCCCC1)OC(=O)Nc1ccccc1 (configuration not stated) [DIPERODON]

>  <Bacterial Biotransformation>
Compound NOT metabolized

$$$$
>  <compound>
CS(=O)(=O)O.OC(CCN1CCCCC1)(c1ccccc1)c1ccccc1 [PRIDINOL METHANESULFONATE]

>  <Bacterial Biotransformation>
Compound NOT metabolized

$$$$
>  <compound>
CC(C)(C(=O)O)c1ccc(C(O)CCCN2CCC(C(O)(c3ccccc3)c3ccccc3)CC2)cc1 (configuration not stated) [FEXOFENADINE]

>  <Bacterial Biotransformation>
Compound NOT metabolized

$$$$
>  <compound>
C[C@@H](CO)NC(=O)[C@@H]1C=C2c3cccc4[nH]cc(c34)C[C@H]2N(C)C1.O=C(O)/C=C\C(=O)O [ERGONOVINE MALEATE]

>  <Bacterial Biotransformation>
Compound metabolized

$$$$
>  <compound>
CNS(=O)(=O)Cc1ccc2[nH]cc(CCN(C)C)c2c1.O=C(O)CCC(=O)O [SUMATRIPTAN SUCCINATE]

>  <Bacterial Biotransformation>
Compound NOT metabolized

$$$$
>  <compound>
OC(Cn1cncn1)(Cn1cncn1)c1ccc(F)cc1F [FLUCONAZOLE]

>  <Bacterial Biotransformation>
Compound NOT metabolized

$$$$
>  <compound>
CCCCCCOC(=O)/N=C(/N)c1ccc(NCc2nc3cc(C(=O)N(CCC(=O)OCC)c4ccccn4)ccc3n2C)cc1.CS(=O)(=O)O [DABIGATRAN ETEXILATE MESYLATE]

>  <Bacterial Biotransformation>
Compound NOT metabolized

$$$$
>  <compound>
CCC(=O)NCC[C@@H]1CCc2ccc3c(c21)CCO3 [RAMELTEON]

>  <Bacterial Biotransformation>
Compound metabolized

$$$$
>  <compound>
NC(CO)(CO)CO.O=C(c1ccccc1)c1ccc2n1CCC2C(=O)O (configuration not stated) [KETOROLAC TROMETHAMINE]

>  <Bacterial Biotransformation>
Compound NOT metabolized

$$$$
>  <compound>
NC(=O)N1c2ccccc2CC(=O)c2ccccc21 [OXCARBAZEPINE]

>  <Bacterial Biotransformation>
Compound metabolized

$$$$
>  <compound>
CC(CN(C)C)CN1c2ccccc2CCc2ccccc21.O=C(O)/C=C\C(=O)O (configuration not stated) [TRIMIPRAMINE MALEATE]

>  <Bacterial Biotransformation>
Compound NOT metabolized

$$$$
>  <compound>
OCCN1CCN(CCCN2c3ccccc3Sc3ccc(C(F)(F)F)cc32)CC1 [FLUPHENAZINE]

>  <Bacterial Biotransformation>
Compound NOT metabolized

$$$$
>  <compound>
CCCCc1nc(Cl)c(CO)n1Cc1ccc(-c2ccccc2-c2nn[nH]n2)cc1 [LOSARTAN]

>  <Bacterial Biotransformation>
Compound NOT metabolized

$$$$
